System: Hepatitis C virus
Assay: Antiviral activity against HCV JFH-1 infected in human Huh 7.5.1 cells after 2 days by firefly luciferase reporter gene assay
Type: functional, organism-based, Hepacivirus hominis
Conditions: JFH-1, Huh-7.5.1, 48 h
readoutLabel: EC50

1. Ac-PSGSNIISNLFKED-NH2
244 µM

* * *

As shown below, each of these compounds has a reported half-life at 20 µM value.
Assay: Half life of the compound in presence of chymotrypsin at 20 uM by HPLC analysis
Assay type: physicochemical
Bridge positions count the residues as written; N and C are the ends. Square brackets hold non-standard residues; d marks the D form. Peptide text beside a SMILES is read from it. R8 = C=CCCCCCC[C@@](C)(N)C(=O)O; R5 = C=CCCC[C@@](C)(N)C(=O)O; S5 = C=CCCC[C@](C)(N)C(=O)O
readoutLabel: half-life at 20 µM

1. CC[C@H](C)[C@@H]1NC(=O)[C@H](CC(N)=O)NC(=O)[C@@](C)(NC(=O)CNC(=O)[C@H](CO)NC(=O)[C@@H]2CCCN2C(C)=O)CCC/C=C\CCC[C@@](C)(C(=O)N[C@@H](CC(N)=O)C(=O)N[C@@H](CC(C)C)C(=O)N[C@@H](Cc2ccccc2)C(=O)N[C@@H](CCCCN)C(=O)N[C@@H](CCC(=O)O)C(=O)N[C@@H](CC(=O)O)C(N)=O)NC(=O)[C@H]([C@@H](C)CC)NC1=O (Ac-PSG[S5]NII[S5]NLFKED-NH2; staple (Z) 4-8)
> 3.33 h
2. CC[C@H](C)[C@@H]1NC(=O)[C@H](CC(N)=O)NC(=O)[C@H](CO)NC(=O)[C@](C)(NC(=O)[C@H](CO)NC(=O)[C@@H]2CCCN2C(C)=O)CCCCCC/C=C\CCC[C@](C)(C(=O)N[C@@H](Cc2ccccc2)C(=O)N[C@@H](CCCCN)C(=O)N[C@@H](CCC(=O)O)C(=O)N[C@@H](CC(=O)O)C(N)=O)NC(=O)[C@H](CC(N)=O)NC(=O)[C@H](CO)NC(=O)[C@H]([C@@H](C)CC)NC1=O (Ac-PS[R8]SNIISN[R5]FKED-NH2; staple (Z) 3-10)
> 3.33 h
3. CC[C@H](C)[C@H](NC(=O)[C@H](CC(N)=O)NC(=O)[C@H](CO)NC(=O)CNC(=O)[C@H](CO)NC(=O)[C@@H]1CCCN1C(C)=O)C(=O)N[C@H](C(=O)N[C@@]1(C)CCC/C=C\CCC[C@@](C)(C(=O)N[C@@H](CCC(=O)O)C(=O)N[C@@H](CC(=O)O)C(N)=O)NC(=O)[C@H](Cc2ccccc2)NC(=O)[C@H](CC(C)C)NC(=O)[C@H](CC(N)=O)NC1=O)[C@@H](C)CC (Ac-PSGSNII[S5]NLF[S5]ED-NH2; staple (Z) 8-12)
> 3.33 h

Values were extracted from ChEMBL document CHEMBL2390948.
